System: HepG2
experiment description: cell viability relative to DMSO; higher = less toxic
test conditions: 72 h; 1000 nM
Here, each record is paired with measured cell viability data.
Respond with the bare value in %.

A selection of reference data follows.
| compound | endpoint unit | cell viability |
| --- | --- | --- |
| NS(=O)(=O)NCc1csc2ccccc12 | % | 98.7 |
| Oc1c(I)cc(I)c(O)c1I | % | 93.2 |
| CC1OC2(CS1)CN1CCC2CC1 (stereo not given) | % | 89.2 |
| O=C1C(CC[S+]([O-])c2ccccc2)C(=O)N(c2ccccc2)N1c1ccccc1 (stereo not given) | % | 97.7 |
| C[C@@H]1C[C@H]2[C@@H]3CCC4=CC(=O)C=C[C@]4(C)[C@@]3(F)[C@@H](O)C[C@]2(C)[C@@]1(O)C(=O)COP(=O)(O)O [DEXAMETHASONE SODIUM PHOSPHATE] | % | 97.8 |
| O=c1cc(N2CCOCC2)oc2c(-c3ccccc3)cccc12 | % | 105 |
| Cc1cccn2c(=O)c(/C=C(\C#N)c3nc4ccccc4s3)c(Oc3ccc(F)cc3)nc12 | % | 99.3 |
| CC(=O)SCCC(=O)N1[C@H](C)CCC[C@@H]1C(=O)O | % | 96 |

What cell viability appears in the records for this compound with HepG2? Cc1cc(-c2nc(C(=O)Nc3cn(C4CCOCC4)nc3C(N)=O)co2)ccn1 82.9

API: value(readout=cell viability, system=HepG2) for record O=C1c2c(O)cc(O)cc2O[C@H](c2cc(O)c(O)c(O)c2)[C@H]1O [dihydromyricetin] 94.7

###

System: Vero E6
experiment description: relative viability EC50 (midpoint between 100% and the lowest measured viability); higher = less toxic
test conditions: 72 h
recorded endpoint: relative viability EC50

These solved cases illustrate the format of a correct answer.
| molecule | relative viability EC50 |
| --- | --- |
| CCCNC(=O)NS(=O)(=O)c1ccc(Cl)cc1 [chlorpropamide] | > 10 µM |
| CC1(C)O[C@H]2CC(=O)OC[C@]23[C@H]2CC[C@@]4(C)[C@H](c5ccoc5)OC(=O)[C@H]5O[C@]54[C@]2(C)C(=O)C[C@@H]13 | > 10 µM |
| CC#CC(=O)N1CCC[C@H]1c1nc(-c2ccc(C(=O)Nc3ccccn3)cc2)c2c(N)nccn12 | > 10 µM |

Which relative viability EC50 is reported for this molecule? CC1OC2(CS1)CN1CCC2CC1 (centres undefined) > 10 µM

# lookup: relative viability EC50 of C[C@@H]1O[C@@H](O[C@@H]2[C@@H](O)[C@H](OCCc3ccc(O)c(O)c3)O[C@H](CO)[C@H]2OC(=O)/C=C/c2ccc(O)c(O)c2)[C@H](O)[C@H](O)[C@H]1O [verbascoside] > 10 µM

Would you kindly share the measured relative viability EC50 for C/C(=C\c1csc(C)n1)[C@@H]1C[C@@H]2O[C@]2(C)CCC[C@H](C)[C@H](O)[C@@H](C)C(=O)C(C)(C)[C@@H](O)CC(=O)N1 [ixabepilone] ? 0.493 µM

###

System: A549-ACE2 infected with SARS-CoV-2
experiment description: SARS-CoV-2 infection rate relative to DMSO; higher = more infection
test conditions: 10 µM; 24 h
Catalogue of compounds with associated SARS-CoV-2 infection rate
// note: answer is a bare numeric in %

| compound | endpoint unit | SARS-CoV-2 infection rate |
| --- | --- | --- |
| CCN(CC)CC1CCN(c2ncc3ncnc(Nc4ccc(F)c(Cl)c4)c3n2)CC1 | % | 27 |
| CC[C@@]1([C@H]2O[C@H]([C@H]3O[C@@](O)(CO)[C@H](C)C[C@@H]3C)C[C@H]2C)CC[C@H]([C@@]2(C)CC[C@]3(C[C@H](O)[C@@H](C)[C@@H]([C@H](C)[C@H](OC)[C@@H](C)C(=O)O)O3)O2)O1 [MONENSIN SODIUM] | % | 25 |
| CCCCCC(=O)O[C@]1(C(C)=O)CC[C@H]2[C@@H]3CCC4=CC(=O)CC[C@]4(C)[C@H]3CC[C@@]21C [17-hydroxyprogesterone-caproate] | % | 81 |

Now look at this entry.
Returns the measured SARS-CoV-2 infection rate for the input compound. Input: Cc1ccc(C(=O)Nc2cccc(C(F)(F)F)c2)cc1Nc1nc(-c2cccnc2)nc2c1cnn2C 41

###

Below, each entry is listed alongside its reported cell viability.
Test system: Calu-3
experiment description: cell viability relative to DMSO; higher = less toxic
test conditions: 72 h; 1000 nM
Write it as a number; the unit % goes unstated.

// worked examples, cell viability included
| compound | endpoint unit | cell viability |
| --- | --- | --- |
| N#CCC(=O)c1ccccc1 | % | 100 |
| COc1cc2c(cc1OC)[C@@H]1Cc3ccc(OC)c(OC)c3CN1CC2 | % | 101 |
| Cn1ncc(Cl)c1-c1cc(C(=O)N[C@H](CN)Cc2cccc(F)c2)sc1Cl | % | 89.7 |
| COc1ccc(CCN)cc1OC | % | 98.2 |
| Cc1ccccc1/N=N/c1ccc(NC(=O)c2ccnn2C)c(C)c1 | % | 99.3 |

Name the reported cell viability value associated with the compound CC(C)C[C@H](NC(=O)CNC(=O)[C@H](Cc1ccc(O)cc1)NC(=O)[C@H](CO)NC(=O)[C@H](Cc1c[nH]c2ccccc12)NC(=O)[C@H](Cc1cnc[nH]1)NC(=O)[C@@H]1CCC(=O)N1)C(=O)N[C@@H](CCCNC(=N)N)C(=O)N1CCC[C@H]1C(=O)NCC(N)=O 86.9

###

In this section, each of the compounds is paired with its reported cell viability.
Test system: U2OS
experiment description: cell viability relative to DMSO; higher = less toxic
test conditions: 72 h; 10 nM
Lab book: enter the figure in %, no units written.

Answered cases to consult:
| compound | cell viability / % |
| --- | --- |
| Clc1ccc(COC(Cn2ccnc2)c2ccc(Cl)cc2Cl)c(Cl)c1 (stereo unspecified) | 94.9 |
| COc1ccccc1N1CCN(CCCCN2C(=O)c3ccccc3C2=O)CC1 | 100 |
| OC[C@H]1O[C@H](O)C[C@@H](O)[C@@H]1O | 102 |
| Nc1c(-c2cccc(C(F)(F)F)c2)nsc1C(=O)O | 99.5 |
| OC(c1ccccc1)C1CCN(CCc2ccccc2)CC1 (stereo unspecified) | 96.7 |
| O=C(O)CCCCCCNC1c2ccccc2CCc2ccccc21 | 101 |
| CNCCC=C1c2ccccc2C=Cc2ccccc21 | 98.1 |
| Nc1ncnc2nc(-c3ccc(N4CCOCC4)nc3)cc(-c3cccc(Br)c3)c12 | 103 |

Please report the recorded cell viability for CCN(CC)CCN[C@@H](C(=O)OCCC(C)C)c1ccccc1 [camylofine-chlorhydrate] . 99.7

What value of cell viability has been recorded for this entry: NC/C(=C/F)CCc1ccc(F)cc1 99.3

Record request: cell viability value, item C[C@@H]1Cc2c([nH]c3ccccc23)[C@@H](c2c(F)cc(/C=C/C(=O)O)cc2F)N1CC(C)(C)F 100

###

System: U2OS
experiment description: cell viability relative to DMSO; higher = less toxic
test conditions: 72 h; 10000 nM
Each entry below carries its recorded cell viability.
Answer format: numeric, % implied, no suffix.

| compound | recorded endpoint | measurement |
| --- | --- | --- |
| C[C@@H]1CC(=O)c2c(ccc3c2C(=O)c2cccc(O)c2C3=O)C1 | cell viability | 99.9 |

Turning to the following compound.
Requested read-out: cell viability. Entry: COc1ccccc1N1CCN(CCCCN2C(=O)c3ccccc3C2=O)CC1 101

###

Test system: Vero E6
experiment description: cell viability relative to DMSO; higher = less toxic
test conditions: 72 h; 10000 nM
recorded endpoint: cell viability (%)
Field format: number, assumed %, no unit text.

| molecule | study system | cell viability [%] |
| --- | --- | --- |
| Oc1ccc(OCc2ccccc2)cc1 [monobenzone] | Vero E6 | 100 |

Short answer please: cell viability, Vero E6, entry CCN(CC)CC1CCN(c2ncc3ncnc(Nc4ccc(F)c(Cl)c4)c3n2)CC1 [BIBU-1361] 42.9

Given the entry CN1[C@@H]2C[C@@H](O)C[C@H]1[C@@H]1O[C@@H]12 [scopine] , what cell viability was observed with Vero E6? 98.8

What is its cell viability for Vero E6? Entry: Cn1nnc(-c2ccc(-c3ccc(N4C[C@H](CO)OC4=O)cc3F)cn2)n1 [tedizolid] 92.9

Item COc1ccc(-c2coc3cc(O)ccc3c2=O)cc1 [formononetin] with Vero E6 - cell viability? 102

Request body: readout cell viability, system Vero E6, query Cc1[nH]c2ccc(O)cc2c1CCN [2-methyl-5-hydroxytryptamine] . Return the value. 94.9

State its cell viability on Vero E6: CN1CCN(CCCN2c3ccccc3Sc3ccc(Cl)cc32)CC1 [prochlorperazine] 81

Please state recorded cell viability (tested on Vero E6) of CN(C(=O)/C=C/c1ccoc1)[C@@H]1CC[C@@]2(O)[C@H]3Cc4ccc(O)c5c4[C@@]2(CCN3CC2CC2)[C@H]1O5 [nalfurafine] 102

Request: cell viability, test system Vero E6, entry COc1ccc(/C=C/CCCCOc2ccc(C(=O)c3cccc(C(=O)O)c3)cc2CCC(=O)O)cc1 99
